Let's go through some log10(IC50) measurements on mouse colon carcinoma (CT-26) cells together.
Note the log scale: values are log10 of IC50 expressed in µM.

These solved cases illustrate the format of a correct answer.
Molecule | Number
C(=C\c1ccnc(-c2cc(/C=C/c3ccccc3)ccn2)c1)/c1ccccc1.C(=C\c1ccnc(-c2cc(/C=C/c3ccccc3)ccn2)c1)/c1ccccc1.C(=C\c1ccnc(-c2cc(/C=C/c3ccccc3)ccn2)c1)/c1ccccc1.F[P-](F)(F)(F)(F)F.F[P-](F)(F)(F)(F)F.[Ru+2] [Compound 1] | 1.31
CN(C)c1ccc(/C=C/c2ccnc(-c3cc(/C=C/c4ccc(N(C)C)cc4)ccn3)c2)cc1.F[P-](F)(F)(F)(F)F.F[P-](F)(F)(F)(F)F.[Ru+2].c1ccc(-c2ccccn2)nc1.c1ccc(-c2ccccn2)nc1 [Compound 6] | 0.38

# batch size: 3; output log10(IC50) per entry
1. CN(C)c1ccc(/C=C/c2ccnc(-c3cc(/C=C/c4ccc(N(C)C)cc4)ccn3)c2)cc1.F[P-](F)(F)(F)(F)F.F[P-](F)(F)(F)(F)F.[Ru+2].c1ccc(-c2ccnc3c2ccc2c(-c4ccccc4)ccnc23)cc1.c1ccc(-c2ccnc3c2ccc2c(-c4ccccc4)ccnc23)cc1 [Compound 10]
2. C=CC1=C(C)c2cc3[nH]c(cc4nc(cc5[nH]c(cc1n2)c(C)c5CCC(=O)O)C(CCC(=O)O)=C4C)c(C)c3C=C [PpIX, Protoporphyrin IX, reference compound]
3. CN(C)c1ccc(/C=C/c2ccnc(-c3cc(/C=C/c4ccc(N(C)C)cc4)ccn3)c2)cc1.CN(C)c1ccc(/C=C/c2ccnc(-c3cc(/C=C/c4ccc(N(C)C)cc4)ccn3)c2)cc1.CN(C)c1ccc(/C=C/c2ccnc(-c3cc(/C=C/c4ccc(N(C)C)cc4)ccn3)c2)cc1.F[P-](F)(F)(F)(F)F.F[P-](F)(F)(F)(F)F.[Ru+2] [Compound 2]

Reply:
1: 0.11; 2: -0.40; 3: 1.63

Below is a list of molecules. For each, state its recorded log10(IC50).
1. COc1ccc(/C=C/c2ccnc(-c3cc(/C=C/c4ccc(OC)cc4)ccn3)c2)cc1.COc1ccc(/C=C/c2ccnc(-c3cc(/C=C/c4ccc(OC)cc4)ccn3)c2)cc1.COc1ccc(/C=C/c2ccnc(-c3cc(/C=C/c4ccc(OC)cc4)ccn3)c2)cc1.F[P-](F)(F)(F)(F)F.F[P-](F)(F)(F)(F)F.[Ru+2] [Compound 3]
2. CN(C)c1ccc(/C=C/c2ccnc(-c3cc(/C=C/c4ccc(N(C)C)cc4)ccn3)c2)cc1.CN(C)c1ccc(/C=C/c2ccnc(-c3cc(/C=C/c4ccc(N(C)C)cc4)ccn3)c2)cc1.F[P-](F)(F)(F)(F)F.F[P-](F)(F)(F)(F)F.[Ru+2].c1ccc(-c2ccccn2)nc1 [Compound 4]
3. COc1ccc(/C=C/c2ccnc(-c3cc(/C=C/c4ccc(OC)cc4)ccn3)c2)cc1.COc1ccc(/C=C/c2ccnc(-c3cc(/C=C/c4ccc(OC)cc4)ccn3)c2)cc1.F[P-](F)(F)(F)(F)F.F[P-](F)(F)(F)(F)F.[Ru+2].c1ccc(-c2ccccn2)nc1 [Compound 5]
4. COc1ccc(C=Cc2ccnc(-c3cc(C=Cc4ccc(OC)cc4)ccn3)c2)cc1.F[P-](F)(F)(F)(F)F.F[P-](F)(F)(F)(F)F.[Ru+2].c1ccc(-c2ccnc3c2ccc2c(-c4ccccc4)ccnc23)cc1.c1ccc(-c2ccnc3c2ccc2c(-c4ccccc4)ccnc23)cc1 [Compound 11]

Reply:
1. 1.29
2. 0.86
3. 0.71
4. -0.30
